# method_summary: Inhibition of miR-122 (unknown origin) assessed as relative light unit by luciferase assay
experimental_readout: Activity (RLU)
Numbers only, in RLU.

Consider the reported Activity for these compounds:
{"smiles": "CCCCCCNS(=O)(=O)c1ccc2c(c1)CCCN2", "Activity / RLU": 11.9}
{"smiles": "O=C(Nc1ccc2ccccc2c1)c1ccc([N+](=O)[O-])cc1", "Activity / RLU": 6.2}

Parameter requested: Activity. Apply to each item below.
1. CC(=O)c1ccc(C(=O)Nc2ccc3ccccc3c2)cc1
2. O=S(=O)(c1ccc2c(c1)CCCN2)N1CCC[C@H]2CCCC[C@@H]21
3. O=C(Nc1ccc2ccccc2c1)c1ccc(Cl)cc1Cl
4. O=S(=O)(Nc1ccccc1)c1ccc2c(c1)CCCN2

1: 6.7; 2: 0.6; 3: 7.73; 4: 9.9

###

I'd appreciate it if you could supply Kd values for the items below.
# method_summary: Binding affinity to pre-miR-21 (unknown origin) at A bulge assessed as dissociation constant by dicer assay
Numbers only, in µM.

Worked examples, 2 molecules total:
{"molecule": "COc1cccc2c1C(=O)c1c(O)c3c(c(O)c1C2=O)C[C@@](O)(C(=O)CO)C[C@@H]3O[C@H]1C[C@H](N)[C@H](O)[C@H](C)O1", "unit_label": "µM", "Kd": 0.058}
{"molecule": "O=C1c2c(O)ccc(O)c2C(=O)c2c(NCCNCCO)ccc(NCCNCCO)c21", "unit_label": "µM", "Kd": 0.033}

Kindly review the next molecule as well.
Please indicate Kd recorded for COc1cccc2c1C(=O)c1c(O)c3c(c(O)c1C2=O)C[C@@](O)(C(=O)CO)C[C@@H]3O[C@H]1C[C@H](N)[C@@H](O)[C@H](C)O1 [EPIRUBICIN]
0.024

###

# method_summary: Binding affinity to miR-96 (unknown origin) assessed as dissociation constant
# Design: species or system Homo sapiens
Could you please report measured pKd for the items listed next?
Answers are plain numbers, as −log10 of the molar value.

{"smiles": "CCCN(CC(=O)N(CCC)CC(=O)N(CC(N)=O)Cc1cn(CCCNC(=O)CCCOc2c(C(C)(C)C)cc(-c3nc4cc(N5CCN(C)CC5)ccc4[nH]3)cc2C(C)(C)C)nn1)C(=O)CCCOc1cccc(-c2nc3ccc(-c4nc5ccc(N6CCN(C)CC6)cc5[nH]4)cc3[nH]2)c1", "pKd": 6.70}

Look up pKd of CN1CCN(c2ccc(-c3ccc4nc(-c5cc(C(C)(C)C)c(OCCCC(=O)NCCCN=[N+]=[N-])c(C(C)(C)C)c5)[nH]c4c3)cc2)CC1 and report it.
7.07

###

# method_summary: Binding affinity to pre-miR-21 (unknown origin) assessed as dissociation constant by microarray assay
experimental_readout: pKd
Give bare numbers, as −log10 of the molar value.

Observe how each entry below is paired with its result.
{"compound": "CCOc1ccc(NCC(O)Cn2c3ccc(Br)cc3c3cc(Br)ccc32)cc1 (centres undefined)", "experimental_readout": "pKd", "obs_value": 5.92}
{"compound": "CCCOc1ccc(NCC(O)Cn2c3ccc(Br)cc3c3cc(Br)ccc32)cc1 (centres undefined)", "experimental_readout": "pKd", "obs_value": 5.66}
{"compound": "Cc1ccccc1NCC(O)Cn1c2ccc(Br)cc2c2cc(Br)ccc21 (centres undefined)", "experimental_readout": "pKd", "obs_value": 5.64}

Continue with the next compound.
Using the record for OC(CNc1ccc(N2CCOCC2)cc1)Cn1c2ccc(Br)cc2c2cc(Br)ccc21 (centres undefined) , state its measured pKd.
5.68

###

# method_summary: Activation of miR-122 (unknown origin) by luciferase assay
experimental_readout: IC50 (µM)
Answers are plain numbers, in µM.

Hello, please tell me recorded IC50 for this one: CN(C)CCN1C(=O)c2cccc3cc(N)cc(c23)C1=O [AMONAFIDE]
3

###

# method_summary: Binding affinity to pre-miR-21 (unknown origin) at U bulge assessed as dissociation constant by dicer assay
experimental_readout: Kd
Provide the measurement as a number trailed by its unit.

State, in one line, measured Kd of O=C1c2c(O)ccc(O)c2C(=O)c2c(NCCNCCO)ccc(NCCNCCO)c21 [MITOXANTRONE]
46 nM

###

# method_summary: Inhibition of pre-miR-373 (unknown origin) by FRET assay
experimental_readout: pIC50
Numbers only, as −log10 of the molar value.

{"smiles": "CCCCNC(=O)Nc1ccc2oc(CCc3cn([C@H]4O[C@@H](O[C@@H]5[C@@H](O)[C@H](N)C[C@H](N)[C@H]5O[C@H]5O[C@H](CN)[C@@H](O)[C@H](O)[C@H]5N)[C@H](O)[C@@H]4O[C@H]4O[C@@H](CN)[C@@H](O)[C@H](O)[C@H]4N)nn3)nc2c1", "pIC50": 4.68}
{"smiles": "NC[C@@H]1O[C@H](O[C@H]2[C@@H](O)[C@H](O[C@@H]3[C@@H](O)[C@H](N)C[C@H](N)[C@H]3O[C@H]3O[C@H](CN)[C@@H](O)[C@H](O)[C@H]3N)O[C@@H]2n2cc(CCc3nc4cc(NC(=O)Nc5ccccc5)ccc4o3)nn2)[C@H](N)[C@@H](O)[C@@H]1O", "pIC50": 6.27}
{"smiles": "NC[C@@H]1O[C@H](O[C@H]2[C@@H](O)[C@H](O[C@@H]3[C@@H](O)[C@H](N)C[C@H](N)[C@H]3O[C@H]3O[C@H](CN)[C@@H](O)[C@H](O)[C@H]3N)O[C@@H]2n2cc(CCC(=O)NCC(=O)Nc3nc4ccccc4[nH]3)nn2)[C@H](N)[C@@H](O)[C@@H]1O", "pIC50": 5.07}
{"smiles": "NC[C@@H]1O[C@H](O[C@H]2[C@@H](O)[C@H](O[C@@H]3[C@@H](O)[C@H](N)C[C@H](N)[C@H]3O[C@H]3O[C@H](CN)[C@@H](O)[C@H](O)[C@H]3N)O[C@@H]2n2cc(Cn3cnc(-c4cccc(NC(=O)c5ccccc5)c4)c3)nn2)[C@H](N)[C@@H](O)[C@@H]1O", "pIC50": 5.05}
{"smiles": "CC(=O)Nc1csc(-c2cccc(NC(=O)CCc3cn([C@H]4O[C@@H](O[C@@H]5[C@@H](O)[C@H](N)C[C@H](N)[C@H]5O[C@H]5O[C@H](CN)[C@@H](O)[C@H](O)[C@H]5N)[C@H](O)[C@@H]4O[C@H]4O[C@@H](CN)[C@@H](O)[C@H](O)[C@H]4N)nn3)c2)n1", "pIC50": 5.29}

Hi there! I need pIC50 for each item below, if you can.
1. NC[C@@H]1O[C@H](O[C@H]2[C@@H](O)[C@H](O[C@@H]3[C@@H](O)[C@H](N)C[C@H](N)[C@H]3O[C@H]3O[C@H](CN)[C@@H](O)[C@H](O)[C@H]3N)O[C@@H]2CO)[C@H](N)[C@@H](O)[C@@H]1O
2. CCCCNC(=O)Nc1cccc(-c2cn(Cc3cn([C@H]4O[C@@H](O[C@@H]5[C@@H](O)[C@H](N)C[C@H](N)[C@H]5O[C@H]5O[C@H](CN)[C@@H](O)[C@H](O)[C@H]5N)[C@H](O)[C@@H]4O[C@H]4O[C@@H](CN)[C@@H](O)[C@H](O)[C@H]4N)nn3)cn2)c1

[3.75, 4.76]

###

Kindly supply the reported EC50 values for the records listed here.
# System: BCL1
# method_summary: Inhibition of cell growth in mouse BCL1 cells
# Format: functional, cell-based
One number for each entry, in µM.

I would be grateful if you could provide EC50 for each of the following entries.
1. O=[N+]([O-])c1ccc2nc(-c3ccccc3O)nc(-c3ccccc3)c2c1
2. O=[N+]([O-])c1ccc2nc(-c3ccccc3)nc(-c3ccccc3)c2c1
3. O=[N+]([O-])c1ccc2nc(-c3ccccc3[N+](=O)[O-])nc(-c3ccccc3)c2c1

1: 20; 2: 20; 3: 20

###

# method_summary: Inhibition of miR-27a (unknown origin) maturation at 5 uM relative to control
experimental_readout: inhibition (%)
Give bare numbers, in %.

{"molecule": "NC[C@@H]1O[C@H](O[C@H]2[C@@H](O)[C@H](O[C@@H]3[C@@H](O)[C@H](N)C[C@H](N)[C@H]3O[C@H]3O[C@H](CN)[C@@H](O)[C@H](O)[C@H]3N)O[C@@H]2CO)[C@H](N)[C@@H](O)[C@@H]1O [FRAMYCETIN]", "obs_value": 25}

Value sought for every listed molecule: inhibition.
1. CNC(=O)c1cc(Oc2ccc(NC(=O)Nc3ccc(Cl)c(C(F)(F)F)c3)c(F)c2)ccn1 [REGORAFENIB]
2. CN[C@@H]1[C@H](O[C@H]2[C@H](O[C@H]3[C@H](O)[C@@H](O)[C@H](N=C(N)N)[C@@H](O)[C@@H]3N=C(N)N)O[C@@H](C)[C@]2(O)C=O)O[C@@H](CO)[C@H](O)[C@H]1O
3. NC[C@H]1O[C@H](O[C@H]2[C@H](O)[C@@H](O[C@H]3O[C@H](CO)[C@@H](O)[C@H](N)[C@H]3O)[C@H](N)C[C@@H]2N)[C@H](O)[C@@H](O)[C@@H]1O
4. NC[C@H]1O[C@H](O[C@H]2[C@H](O)[C@@H](O[C@H]3O[C@H](CO)[C@@H](O)[C@H](N)[C@H]3O)[C@H](N)C[C@@H]2N)[C@H](N)C[C@@H]1O

1: 25; 2: 25; 3: 25; 4: 10

# credit: ChEMBL document CHEMBL5233220
